experiment: BET inhibitor-based combinations targeting novel dependencies in MECOM-rearranged (r) AML: OCI-AML3 cell line (AID 2202232); conditions: CellTiter-Glo luminescence, 48 h; OCI-AML3 viability; series mostly up to 46 µM; note: nearly all actives have a fitted effect of over 35% in size
Inconclusive results are not listed. Active and inactive are the calls of the source. Calls come from the whole dose curve; as a rule, active = well fitted inhibition curve with a large enough effect; inconclusive = small, poorly fitted or top-dose-only effect; inactive = no such curve, though single readings can be large or run the other way.
Respond using exactly one of the listed classes: yes (1) = active, no (0) = inactive

Please review the following examples before continuing.
O=c1[nH]c(=O)n([C@H]2C[C@H](O)[C@@H](CO)O2)cc1F; yes (1)
COc1cccc2c1C(=O)c1c(O)c3c(c(O)c1C2=O)C[C@@](O)(C(C)=O)C[C@@H]3O[C@H]1C[C@H](N)[C@H](O)[C@H](C)O1; yes (1)
CCC(=C/[C@H](C)C/C=C/C(C)=C/[C@@H](C)C(=O)[C@@H](C)[C@H](O)[C@@H](C)C/C(C)=C/C(=O)O)/C=C/[C@@H]1OC(=O)C=C[C@@H]1C; yes (1)

Returns: the outcome recorded for N#Cc1ccc(-c2c(-c3ncn[nH]3)sc(N3CCOCC3)c2C#N)c(F)c1 in this assay. yes (1)

For this compound, state the assay outcome: O=C(/C=C\n1cnc(-c2cc(C(F)(F)F)cc(C(F)(F)F)c2)n1)N1CC(F)(F)C1 yes (1)

Given CC(=O)N1c2ccc(-c3ccc(C(=O)O)cc3)cc2[C@H](Nc2ccc(Cl)cc2)C[C@@H]1C , state the outcome it received in this test. yes (1)

Any idea what this test logged for CCC(=O)OCC(=O)C1(OC(=O)CC)C(C)CC2C3CCC4=CC(=O)C=CC4(C)C3(F)C(O)CC21C (stereo not given) ? no (0)

Please share the test call associated with CN1CCN(CCCNc2ncc(Cl)c(-c3cc4c(C(=O)NC5CC5)cccc4s3)n2)CC1 . no (0)

Per the assay record, what outcome was assigned to C[C@H]1[C@@H](OC(=O)CCC(=O)O)O[C@@H]2O[C@@]3(C)CC[C@@H]4[C@H](C)CC[C@@H]1[C@@]24OO3 ? yes (1)

Just curious, what result did O=S(=O)(Nc1ccc(-c2cccnc2)c2cccnc12)c1cccc(C(F)(F)F)c1 get here? yes (1)

Any idea what this test logged for Cc1c(NC(=O)OC[C@@H]2COCCN2)cn2ncnc(Nc3ccc4c(cnn4Cc4cccc(F)c4)c3)c12 ? yes (1)
